Tested on: aromatase in human preadipocytes
assay_name: Induction of aromatase mRNA and activity in preadipocytes by macrophage-derived conditioned medium
Type: cell-based
protocol_conditions: CM from THP-1 cells treated with 0, 2.5, 5 or 10 μmol/L fatty acid; preadipocytes treated 24 hours
readout_label: aromatase mRNA and activity in human preadipocytes

{"compound": "CCCCCCCCCCCCCCCC(=O)O [PA, palmitic acid]", "target_desc": "aromatase in human preadipocytes", "measured_result": "induced"}
{"compound": "CCCCCCCCCCCCCC(=O)O [MA, myristic acid]", "target_desc": "aromatase in human preadipocytes", "measured_result": "induced"}
{"compound": "CCCCCCCCCCCC(=O)O [LA, lauric acid]", "target_desc": "aromatase in human preadipocytes", "measured_result": "induced"}
{"compound": "CCCCCCCCCCCCCCCCCC(=O)O [SA, stearic acid]", "target_desc": "aromatase in human preadipocytes", "measured_result": "induced"}
